tested on: Vero E6 infected with SARS-CoV-2; assay: inhibition of SARS-CoV-2 cytopathic effect; higher = more antiviral protection, active = above 15; settings: 8.33 nM; 48 h
Recorded metric: inhibition of SARS-CoV-2 cytopathic effect (%)

Compound | Tgt | Experimental value
COc1cc([C@@H]2c3cc4c(cc3[C@@H](O[C@@H]3O[C@@H]5CO[C@@H](c6cccs6)O[C@H]5[C@H](O)[C@H]3O)[C@H]3COC(=O)[C@H]23)OCO4)cc(OC)c1O [teniposide] | Vero E6 infected with SARS-CoV-2 | 2.49
NC1(c2ccc(-c3nc4ccn5c(=O)[nH]nc5c4cc3-c3ccccc3)cc2)CCC1 | Vero E6 infected with SARS-CoV-2 | 0.48
CCS(=O)(=O)N(C)[C@H]1c2cc(C#N)ccc2OC(C)(C)[C@@H]1O [chromanol-293B-(-)-[3R,4S]] | Vero E6 infected with SARS-CoV-2 | -2.19
Cc1nc(-c2cccnc2)sc1C(=O)Nc1ccccc1-c1cn2c(CN3CCOCC3)csc2n1 | Vero E6 infected with SARS-CoV-2 | 1.11

====

system: Vero E6 infected with SARS-CoV-2; experiment: inhibition of SARS-CoV-2 cytopathic effect; higher = more antiviral protection, active = above 15; settings: 100 nM; 48 h
Below is a list of entries, each paired with its recorded inhibition of SARS-CoV-2 cytopathic effect value.
Recorded metric: inhibition of SARS-CoV-2 cytopathic effect (%)

Molecule | Experimental value
CN1CCN(C(c2ccccc2)c2ccc(Cl)cc2)CC1 (stereo not given) | -0.05
COc1cc2c(cc1C(F)(F)F)N(C(=O)Nc1cc(F)cc(-c3cccnc3)c1)CC2 | 0.87
C[CH2][Hg][S]c1ccccc1C(=O)[O-].[Na+] | 1.12
O=C1NN(C(=O)Nc2ccc(Br)cc2)[C@@H](c2ccccc2)[C@@H]1c1ccccc1 | -2.12
O=C1C(=O)N(Cc2ccc(Cl)c(Cl)c2)c2ccccc21 | -1.07
CC(=O)O[C@H]1C[C@H](O[C@H]2[C@@H](O)C[C@H](O[C@H]3[C@@H](O)C[C@H](O[C@H]4CC[C@@]5(C)[C@H](CC[C@@H]6[C@@H]5C[C@@H](O)[C@]5(C)[C@@H](C7=CC(=O)OC7)CC[C@]65O)C4)O[C@@H]3C)O[C@@H]2C)O[C@H](C)[C@H]1O[C@@H]1O[C@H](CO)[C@@H](O)[C@H](O)[C@H]1O [lanatoside-C] | -8.78
Nc1nc(Nc2ccccc2)nc2c1ncn2[C@@H]1O[C@H](CO)[C@@H](O)[C@H]1O | 1.9
CC(C)[C@H]1CC[C@H](C(=O)N[C@H](Cc2ccccc2)C(=O)O)CC1 [nateglinide] | 0.38
O=C(NC1CCOCC1)c1ccc(-c2cc(-c3c[nH]nc3-c3ccccn3)ccn2)cc1 | 0.23
COc1cccc([C@@H](C)NCCCc2ccccc2Cl)c1 | 3.52

====

system: Vero E6 infected with SARS-CoV-2; assay: morphology score (similarity to uninfected cells); higher = more like uninfected cells; conditions: 24 h
Recorded metric: morphology score

Compound | Recorded metric | Experimental value
CCn1nc(C2CCN(C(=O)CCO)CC2)nc1-c1cnc(N)c(-c2nnc(C(C)(C)C)o2)n1 (0.833333 µM) | morphology score | 0.199
CCCCC1(COC(=O)CCC(=O)O)C(=O)N(c2ccccc2)N(c2ccccc2)C1=O [suxibuzone] (10 µM) | morphology score | 0.183
CCCN1C[C@H](CSC)C[C@@H]2c3cccc4[nH]cc(c34)C[C@H]21 [pergolide] (10 µM) | morphology score | 0.343
CNS(=O)(=O)CCc1ccc2[nH]cc(C3CCN(C)CC3)c2c1 [naratriptan] (10 µM) | morphology score | 0.0727
CC1COc2c(N3CCN(C)CC3)c(F)cc3c(=O)c(C(=O)O)cn1c23 (stereo not drawn) [ofloxacin] (10 µM) | morphology score | 0.0901
CC(C)(Sc1ccc(CCN(CCCCC2CCCCC2)C(=O)NC2CCCCC2)cc1)C(=O)O (10 µM) | morphology score | 0.13
Cc1cc2nc3c(=O)[nH]c(=O)nc-3n(C[C@H](O)[C@H](O)[C@H](O)COP(=O)(O)O)c2cc1C [riboflavin-5-phosphate-sodium] (10 µM) | morphology score | 0.173
Nc1nccc(Oc2ccc(NC(=O)c3c[nH]cc(-c4ccc(F)cc4)c3=O)cc2F)c1Cl [metatinib] (10 µM) | morphology score | 0.551

====

system: Vero E6 infected with SARS-CoV-2; assay: inhibition of SARS-CoV-2 cytopathic effect; higher = more antiviral protection, active = above 15; details: 100 nM; 48 h
Below is a list of entries, each paired with its recorded inhibition of SARS-CoV-2 cytopathic effect value.
Recorded metric: inhibition of SARS-CoV-2 cytopathic effect

Molecule | Experimental value
COC1CCN(c2cccc(-c3cc(NC(C)=O)nc(-n4nc(C)cc4C)n3)n2)CC1 | 2.53% (inactive)
CCn1c2ccccc2c2cc(CNC)ccc21 | -0.29% (inactive)
CC(C)(C)NCC(O)c1ccc(O)c(CO)c1 (centres undefined) | -5.03% (inactive)
Nc1ccc(F)cc1NC(=O)c1ccc(CNC(=O)/C=C/c2cccnc2)cc1 [chidamide] | -1.13% (inactive)
O=C(O)CC1CC(c2ccccc2)=NO1 (centres undefined) | -0.78% (inactive)
COc1ccccc1N1CCN(CCCNc2cc(=O)n(C)c(=O)n2C)CC1 | -0.45% (inactive)
O=c1[nH]c2ccccc2n1CCCN1CCC(n2c(=O)[nH]c3cc(Cl)ccc32)CC1 | 1.41% (inactive)
COc1ccc(S(=O)(=O)Nc2cc(Cl)cc(Cl)c2OC)cc1N1CCNCC1 | 1.96% (inactive)
NS(=O)(=O)c1cc(C(=O)O)c(NCc2ccco2)cc1Cl [furosemide] | -1.4% (inactive)

====

Below is a list of entries, each paired with its recorded inhibition of SARS-CoV-2 cytopathic effect value.
system: Vero E6 infected with SARS-CoV-2; assay: inhibition of SARS-CoV-2 cytopathic effect; higher = more antiviral protection, active = above 15; settings: 8.33 nM; 48 h
Recorded metric: inhibition of SARS-CoV-2 cytopathic effect

Compound | Experimental value
Cc1ncc([N+](=O)[O-])n1CC(O)CN1CCOCC1 (stereo unspecified) | -0.21% (inactive)
Oc1cc2c(cc1O)[C@H](Cc1cccc3ccccc13)NCC2 | -0.02% (inactive)
Nc1cccc2c1C(=O)N(C1CCC(=O)NC1=O)C2=O (stereo unspecified) [pomalidomide] | -0.68% (inactive)
CN(C(=O)/C=C/c1ccoc1)[C@@H]1CC[C@@]2(O)[C@H]3Cc4ccc(O)c5c4[C@@]2(CCN3CC2CC2)[C@H]1O5 | -1.02% (inactive)
c1cc2c3c(c1)c1c(n3CCNC2)CCCC1 | -0.02% (inactive)
CC(C)[C@H](CO)Nc1nc(Nc2cc(N)cc(Cl)c2)c2ncn(C(C)C)c2n1 | 0.51% (inactive)
CCC(C)(C)C(=O)C(=O)N1CCC[C@H]1C(=O)OCCCc1cccnc1 | 0.86% (inactive)
COc1cc2ncnc(Nc3cccc(Cl)c3F)c2cc1OC(=O)N1CCN(C)C[C@H]1C | 2.48% (inactive)
CC(C)c1cc(-c2n[nH]c(=O)n2-c2ccc3c(ccn3C)c2)c(O)cc1O | -3.79% (inactive)
CCCCCCCC/C=C\CCCCCCCC(=O)NCc1ccc(O)c(OC)c1 | -0.08% (inactive)
CCCCc1nc(Cl)c(C(=O)O)n1Cc1ccc(-c2ccccc2-c2nn[nH]n2)cc1 | 1.82% (inactive)

====

Below is a list of entries, each paired with its recorded SARS-CoV-2 infection rate value.
test system: Vero E6 infected with SARS-CoV-2; test: SARS-CoV-2 infection rate relative to infected DMSO; higher = more infection, active = 60 or less; conditions: 24 h
Recorded metric: SARS-CoV-2 infection rate

Molecule | Experimental value
C/C(=C\CNc1ncnc2[nH]cnc12)CO [zeatin] (10 µM) | 106% (inactive)
C[C@H](Oc1cc(-c2cnn(C3CCNCC3)c2)cnc1N)c1c(Cl)ccc(F)c1Cl [crizotinib-(S)] (10 µM) | 23% (active)
COc1ccc(CN2CCN(C(c3ccc(F)cc3)c3ccc(F)cc3)CC2)c(OC)c1OC [lomerizine] (10 µM) | 108% (inactive)
NS(=O)(=O)c1cc2c(cc1Cl)NCNS2(=O)=O [hydrochlorothiazide] (10 µM) | 110% (inactive)
CC(=O)N(CC(O)CN(C(C)=O)c1c(I)c(C(=O)NCC(O)CO)c(I)c(C(=O)NCC(O)CO)c1I)c1c(I)c(C(=O)NCC(O)CO)c(I)c(C(=O)NCC(O)CO)c1I (centres undefined) [iodixanol] (10 µM) | 114% (inactive)
COc1cc(Nc2nc3ccccc3nc2NS(=O)(=O)c2ccc(NC(=O)c3ccc(C)c(OC)c3)cc2)cc(OC)c1 (10 µM) | 119% (inactive)
Cn1nc(C(C)(C)C)cc1C(=O)N[C@@H](Cc1cccc(Cl)c1)C(=O)NCC#N [cathepsin-inhibitor-1] (10 µM) | 97.5% (inactive)
O[C@H]1[C@H](O)[C@@H](O)[C@H](O)[C@@H](O)[C@H]1O [inositol] (10 µM) | 95.5% (inactive)
CC(C)NCCN(C(C)C)S(=O)(=O)c1ccc(Cl)cc1Cl (10 µM) | 110% (inactive)
Cc1ccc(O)c([C@H](CCN(C(C)C)C(C)C)c2ccccc2)c1 [tolterodine] (10 µM) | 77.5% (inactive)
CN1Cc2ccccc2[C@@H]2c3cccc4[nH]cc(c34)C[C@H]21 (10 µM) | 95.5% (inactive)
CN1C(=O)CC[C@H]1c1cccnc1 [cotinine] (10 µM) | 108% (inactive)
N[C@H](C(=O)O)c1ccc(O)c(C(=O)O)c1 [3-carboxy-4-hydroxyphenylglycine-(S)] (10 µM) | 95% (inactive)
O=C(NCc1ccc2c(c1)OCO2)c1c(Cl)cccc1Cl [alda-1] (10 µM) | 104% (inactive)
